Attribution: the supplement of paper PMC10567573

method.summary: protein stability index of a GFP-peptide fusion (GPS, HEK-293T) (PSI 1-6); higher = more stable;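 note: 24-mer peptide tiles fused after GFP, lentivirally expressed, FACS-sorted into six equal bins by GFP/DsRed ratio, decoded by Illumina sequencing, PSI is the read-weighted mean bin number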
run.conditions: treatment: DMSO; c terminus: a fixed tail appended
parameter: protein stability index
// return a plain number; no unit text

Use these answered entries as a reference point.
1. PVGFGRRTDPNGDYIRRYLPVLRG [CRY1] :: 3.14
2. LTFHRHPVAQSTDGIRGKVGHARG [SPSB4] :: 3.99

Note to self: protein stability index recorded for DGYCMFNHVAVAARYAQQKHRIRR [HDAC6] was 3.05

Note to self: protein stability index recorded for TEYIESPDVENEVKRLLRSDAEAV [TAF7L] was 4.97

Note to self: protein stability index recorded for QVNGHPDPFDEIILFSLPPALDWD [PTPN9] was 2.27

Note to self: protein stability index recorded for NGSYLELSSDRVANSSSEAPFPNV [ADAMTSL2] was 4.52

Note to self: protein stability index recorded for TITAPPSRVLQNGGDKLETMPLYL [SCD] was 3.5

Note to self: protein stability index recorded for LYLIMEFLPGGDMMTLLMKKDTLT [STK38L] was 3.03

Note to self: protein stability index recorded for VGPAEPTLVNFHLKRSIPQVSPVR [CPN1] was 3.44

====

Recorded measurements of protein stability index, one per entry
method.summary: protein stability index of a GFP-peptide fusion (GPS, HEK-293T) (PSI 1-6); higher = more stable
run.conditions: treatment: DMSO; c terminus: a fixed tail appended
// return a plain number; no unit text

Note to self: protein stability index recorded for QQHSDKTSLQGLTGTPLVAGSPIR [ISL2] was 4.2

Note to self: protein stability index recorded for KLLKSMPILQGQIDALLEFDVHPN [SNAP91] was 2.12

Note to self: protein stability index recorded for KEAVAALPPDVTTQSVMGFDPLPP [TCF25] was 4.79

Note to self: protein stability index recorded for SREMLQQSKILKVIRKNIVKKCLE [HSP90AB1] was 2.56

====

method.summary: protein stability index of a GFP-peptide fusion (GPS, HEK-293T) (PSI 1-6); higher = more stable
run.conditions: treatment: DMSO; c terminus: a fixed tail appended
Recorded measurements of protein stability index, one per entry
// return a plain number; no unit text

1) RVLQNLLTIEERYLPQCSYFKCVQ [CCND2] :: 3.08
2) SSCTHVTGNYRKGNAHLGYSLVTH [ADAMTSL2] :: 2.92

Note to self: protein stability index recorded for SEDVNWGYEKRNLARVPKLDLKRQ [CHGB] was 4.34

Note to self: protein stability index recorded for LGKLEATIKSLSAELLKANEIIKK [SASS6] was 2.44

Note to self: protein stability index recorded for PGSSSGPVLGSSSGAGHGSGSGSG [SPAG8] was 4.87

====

method.summary: protein stability index of a GFP-peptide fusion (GPS, HEK-293T) (PSI 1-6); higher = more stable
run.conditions: treatment: MLN4924 1 uM, 8 h; c terminus: a fixed tail appended
parameter: protein stability index
// return a plain number; no unit text

1) LYGFLLTFGFITMTPQLFINYKLK [CLPTM1] :: 3.44
2) ALMHELSNDGARRQFEFYLEEMIL [BTBD10] :: 2.36
3) SRRLQLGSEENGRYFSLSLMSGAL [PCDHGC5] :: 2.3
4) FFEDGDVQRHLYLQDVIMQVADVP [ZNF511] :: 2.81
5) TVRFCILGKESFYDTFHTVADMMY [HACD3] :: 2.85
6) SREMLQQSKILKVIRKNIVKKCLE [HSP90AB1] :: 2.42
7) LVALAEQHAVQELTKAATSGVGID [RHOBTB1] :: 4.18
8) IDCKFNAESQGCNHEEDAGVRCNT [LOXL2] :: 5.22
9) QSLVSILRTTVHHAFPVVTENRGN [CLCN6] :: 2.46
10) LMKESLQTGDLLSTFHTISPSFQL [PLAGL1] :: 2.17

Note to self: protein stability index recorded for VESLKRFCASTRLPPTPLLLFPEE [AUP1] was 3.01

Note to self: protein stability index recorded for INRLVGLQNTYMGYLDYRKKAIKD [GLT8D2] was 3.01

Note to self: protein stability index recorded for AAAGLHASPMSADRVVAFMDHIRI [NR2F2] was 2.26

Note to self: protein stability index recorded for ERSVVTRDIRCSEDEKLCDPNTRP [ADAMTSL2] was 5.41

Note to self: protein stability index recorded for NNLAASQLKLDHYRAALRSCSLVL [FKBP8] was 2.35

Note to self: protein stability index recorded for STDIGALMYPSYTFSGDVQLAQDD [MMP1] was 4.74

Note to self: protein stability index recorded for PYTEKPRLWHTACASDEGEVIVFG [KLHDC2] was 2.86
